System: LOX IMVI
assay_protocol: NCI tumour cell line growth inhibition, 48 h
The source made the active and inactive calls. Cut-off read from the data, not from the text of the source: active = GI50 up to about 1.1 µM and inactive = higher.
Your answer must be one of the following: 1.0 (active), 0.0 (inactive)

Past entries and their recorded results:
[[record]]
compound = "COc1cc(/C=C2\\CCC(C)C3=C2NC(=S)NC3c2cc(OC)c(OC)c(OC)c2)cc(OC)c1OC (centres undefined)"
class_assignment = 0.0

[[record]]
compound = "NCCNCCCCCCNC(=O)c1cccc2cc3ccccc3nc12"
class_assignment = 0.0

[[record]]
compound = "CC(=O)OCC1OC(n2c(-c3ccccc3)c(/N=N/c3ccccc3)c(C)c(C#N)c2=S)C(OC(C)=O)C(OC(C)=O)C1OC(C)=O (centres undefined)"
class_assignment = 0.0


// switching to the query compound
For Nc1nc(Cl)c(N)c(NCC2(CO)CCC(CCc3ccccc3)C2)n1 (centres undefined) , which call appears in the assay record?
0.0
